- Species on record: Rattus norvegicus
- assay text: Open TG-GATES - Regimen: Daily Repeat
- Type: toxicity, organism-based, Sprague-Dawley
- Design: regimen Daily Repeat, gender Male, age 6 weeks
- experimental context: in vivo, po, 0 mg/kg, […], tissue Blood, route gavage, dose level Control, time 14 day

>  <compound>
COc1ccc(Cl)cc1C(=O)NCCc1ccc(S(=O)(=O)NC(=O)NC2CCCCC2)cc1 [GLYBURIDE]

>  <MCHC (%)>
34.3

$$$$
>  <compound>
O=C1NC(=O)C(c2ccccc2)(c2ccccc2)N1

>  <MCHC (%)>
34.4

$$$$
>  <compound>
O=P1(N(CCCl)CCCl)NCCCO1 (stereo unspecified) [CYCLOPHOSPHAMIDE ANHYDROUS]

>  <MCHC (%)>
33.7

$$$$
>  <compound>
Cc1cccc(Nc2cc(Cl)nc(SCC(=O)O)n2)c1C

>  <MCHC (%)>
35.2

$$$$
>  <compound>
COc1ccc(O)c(C(C)(C)C)c1.COc1ccc(O)cc1C(C)(C)C [BUTYLATED HYDROXYANISOLE]

>  <MCHC (%)>
34.4

$$$$
>  <compound>
CS(=O)(=O)Nc1ccc([N+](=O)[O-])cc1Oc1ccccc1 [NIMESULIDE]

>  <MCHC (%)>
34

$$$$
>  <compound>
Cc1cnc(NC(=O)C2=C(O)c3ccccc3S(=O)(=O)N2C)s1

>  <MCHC (%)>
34

$$$$
>  <compound>
Cn1c(=O)c2c(ncn2C)n(C)c1=O

>  <MCHC (%)>
34.2

$$$$
>  <compound>
C=CCO

>  <MCHC (%)>
34.6

$$$$
>  <compound>
O=C1CN(/N=C/c2ccc(-c3ccc([N+](=O)[O-])cc3)o2)C(O)=N1

>  <MCHC (%)>
33.3

$$$$
>  <compound>
Cn1cnc([N+](=O)[O-])c1Sc1ncnc2nc[nH]c12

>  <MCHC (%)>
36.1

$$$$

Origin of measurements: ChEMBL document CHEMBL3885861
